Data provenance is paper PMC9202281.

Below, each entry is listed with its recorded IC50.
# Assayed system: jack bean urease (EC 3.5.1.5) (Canavalia ensiformis, UniProt P07374)
# Sequence (P07374 whole entry, looked up): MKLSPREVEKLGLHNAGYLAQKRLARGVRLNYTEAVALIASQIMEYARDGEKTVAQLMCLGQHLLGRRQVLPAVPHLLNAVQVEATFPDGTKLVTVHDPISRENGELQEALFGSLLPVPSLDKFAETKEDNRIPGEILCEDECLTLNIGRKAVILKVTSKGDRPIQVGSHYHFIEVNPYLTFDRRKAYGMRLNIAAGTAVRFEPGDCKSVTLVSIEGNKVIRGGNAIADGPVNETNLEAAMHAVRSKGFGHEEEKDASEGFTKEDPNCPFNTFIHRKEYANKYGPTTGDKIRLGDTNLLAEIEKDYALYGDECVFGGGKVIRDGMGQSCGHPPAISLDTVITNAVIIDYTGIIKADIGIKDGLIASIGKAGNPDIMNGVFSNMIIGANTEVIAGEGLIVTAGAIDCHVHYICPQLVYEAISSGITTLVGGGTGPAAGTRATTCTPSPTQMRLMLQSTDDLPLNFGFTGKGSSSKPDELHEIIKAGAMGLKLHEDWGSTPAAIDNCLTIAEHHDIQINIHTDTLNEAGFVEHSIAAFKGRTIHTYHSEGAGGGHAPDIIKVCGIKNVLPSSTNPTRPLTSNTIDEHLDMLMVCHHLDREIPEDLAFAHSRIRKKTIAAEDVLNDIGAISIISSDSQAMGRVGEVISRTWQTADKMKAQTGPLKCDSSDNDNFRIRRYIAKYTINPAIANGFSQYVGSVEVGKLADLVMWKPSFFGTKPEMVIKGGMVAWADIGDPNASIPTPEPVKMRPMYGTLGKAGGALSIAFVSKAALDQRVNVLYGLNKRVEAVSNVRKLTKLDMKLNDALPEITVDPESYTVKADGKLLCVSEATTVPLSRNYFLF
# Assay method text: Urease inhibition method
# Assay type: biochemical
Form entry: value (nM) — number only.

CC(C)N1C(=O)c2ccccc2C1C1C(=O)NC(=O)NC1=O (stereo not drawn)
1850
O=C1NC(=O)C(C2c3ccccc3C(=O)N2c2cccc(Cl)c2)C(=O)N1 (stereo not drawn)
1220
CC(C)CN1C(=O)c2ccccc2C1C1C(=O)NC(=O)NC1=O (stereo not drawn)
1620

get_value(item= Cc1ccc(N2C(=O)c3ccccc3C2C2C(=O)NC(=O)NC2=O)cc1C (stereo not drawn) , readout=IC50) returns 1070

get_value(item= COc1ccc(N2C(=O)c3ccccc3C2C2C(=O)NC(=S)NC2=O)cc1 (stereo not drawn) , readout=IC50) returns 1340

get_value(item= O=C1NC(=O)C(C2c3ccccc3C(=O)N2c2ccc(Br)cc2)C(=O)N1 (stereo not drawn) , readout=IC50) returns 960

get_value(item= COc1ccc(N2C(=O)c3ccccc3C2C2C(=O)NC(=O)NC2=O)cc1 (stereo not drawn) , readout=IC50) returns 820

get_value(item= O=C1NC(=O)C(C2c3ccccc3C(=O)N2c2cc(Cl)cc(Cl)c2)C(=O)N1 (stereo not drawn) , readout=IC50) returns 1780

get_value(item= Cc1ccc(N2C(=O)c3ccccc3C2C2C(=O)NC(=O)NC2=O)cc1 (stereo not drawn) , readout=IC50) returns 1090

###

# Assayed system: jack bean urease (EC 3.5.1.5) (Canavalia ensiformis)
# Assay method text: Urease inhibition method
# Assay type: biochemical
1 if IC50 is below 1 µM. 0 if not; exact matches included in 0.

Solved cases (3 shown):
O=C1NC(=O)C(C2c3ccccc3C(=O)N2c2ccc(F)cc2)C(=O)N1 (centres unmarked)
0
O=C1NC(=O)C(C2c3ccccc3C(=O)N2c2ccc(Cl)cc2)C(=O)N1 (centres unmarked)
0
O=C1NC(=O)C(C2c3ccccc3C(=O)N2c2ccc(Cl)c(Cl)c2)C(=O)N1 (centres unmarked)
1

[in] Problem: For the compound O=C1NC(=O)C(C2c3ccccc3C(=O)N2c2ccccc2)C(=O)N1 (centres unmarked) , is IC50 under 1 µM?
[out] 0

[in] Problem: For the compound COc1ccc(N2C(=O)c3ccccc3C2C2C(=O)N(C)C(=O)N(C)C2=O)cc1 (centres unmarked) , is IC50 under 1 µM?
[out] 1

###

# Assayed system: jack bean urease (EC 3.5.1.5) (Canavalia ensiformis, UniProt P07374)
# Assay method text: Urease inhibition method
# Assay type: biochemical
# Condition notes: read-out: IC50 ± SEM; jack bean urease; triplicate, mean ± SEM
Measurement name: pIC50
Conceptually, pIC50 converts a concentration in mol/L into minus its log10.

get_value(item= NC(N)=S [thiourea, reference compound] , readout=pIC50) returns 4.66
